# Run description: aqueous solubility
# Format: physicochemical
# Run parameters: water
Metric: solubility (µg/mL)

(A) NNc1ccc(C(=O)NCCN2CC(=Cc3ccccc3F)C(=O)C(=Cc3ccccc3F)C2)cn1 [EFAH]
(B) O=C1C(=Cc2ccccc2F)CNCC1=Cc1ccccc1F [EF24, reference compound]
Query: Which numeric solubility is bigger, that of A or that of B ? Answer by stating the label of the chosen item.
Response: A
